Cited source: patent US20210369853A1

- Test system: Human cervical adenocarcinoma cells Hela
- protocolDetails: Cell proliferation experiment (Alarm blue, 72 h, EC50)
- Type: cell-based
pEC50: −log10 of the molar value.
propertyMeasured: pEC50

# compound, propertyMeasured, testResult
measured = [
    ("CC[C@@H]1C(=O)N(C)c2cnc(Nc3ccc(C(=O)NC4CCN(CCOCCN(CC(=O)Nc5cccc6c5CN(C5CCC(=O)NC5=O)C6=O)C(=O)OC(C)C(C)SSC[C@@H](NC(=O)CCOCCOCCOCCOCCOCCOCCNC(=O)CC[C@H](NC(=O)c5ccc(NCc6cnc7nc(N)[nH]c(=O)c7n6)cc5)C(=O)O)C(=O)O)CC4)cc3OC)nc2N1C1CCCC1 (stereo partly shown)", "pEC50", "6.00 to 7.00"),
]

# batch: return pEC50 for each of the 3 compounds below
1. CC[C@@H]1c2nncn2-c2cnc(Nc3ccc(C(=O)NCCOCCOCCOCCOCC(=O)Nc4cccc5c4CN(C4CCC(=O)NC4=O)C5=O)cc3OC)nc2N1C1CCCC1 (stereo partly shown)
2. CC[C@@H]1C(=O)N(C)c2cnc(Nc3ccc(C(=O)NC4CCN(CCOCCN(CC(=O)Nc5cccc6c5CN(C5CCC(=O)NC5=O)C6=O)C(=O)OC(C)C(C)SSC[C@@H](NC(=O)[C@@H](CC(=O)O)NC(=O)[C@@H](CC(=O)O)NC(=O)[C@@H](CCCNC(=N)N)NC(=O)[C@@H](CC(=O)O)NC(=O)CC[C@H](NC(=O)c5ccc(NCc6cnc7nc(N)[nH]c(=O)c7n6)cc5)C(=O)O)C(=O)O)CC4)cc3OC)nc2N1C1CCCC1 (stereo partly shown)
3. CC(OC(=O)N(CCOCCOCCOCCNC(=O)[C@]1(Cc2cccc(Nc3nccs3)n2)CC[C@@H](Oc2cccc(Cl)c2F)CC1)CC(=O)Nc1cccc2c1CN(C1CCC(=O)NC1=O)C2=O)C(C)SSC[C@H](NC(=O)[C@@H](CC(=O)O)NC(=O)[C@@H](CC(=O)O)NC(=O)[C@@H](CCCNC(=N)N)NC(=O)[C@@H](CC(=O)O)NC(=O)CC[C@H](NC(=O)c1ccc(NCc2cnc3nc(N)[nH]c(=O)c3n2)cc1)C(=O)O)C(=O)O (stereo partly shown)

Result:
< 6.00
6.00 to 7.00
6.00 to 7.00

====

- assayedTarget: PLK1 (Homo sapiens, UniProt P53350)
- Construct: endogenous in cells
- Sequence (P53350 whole entry): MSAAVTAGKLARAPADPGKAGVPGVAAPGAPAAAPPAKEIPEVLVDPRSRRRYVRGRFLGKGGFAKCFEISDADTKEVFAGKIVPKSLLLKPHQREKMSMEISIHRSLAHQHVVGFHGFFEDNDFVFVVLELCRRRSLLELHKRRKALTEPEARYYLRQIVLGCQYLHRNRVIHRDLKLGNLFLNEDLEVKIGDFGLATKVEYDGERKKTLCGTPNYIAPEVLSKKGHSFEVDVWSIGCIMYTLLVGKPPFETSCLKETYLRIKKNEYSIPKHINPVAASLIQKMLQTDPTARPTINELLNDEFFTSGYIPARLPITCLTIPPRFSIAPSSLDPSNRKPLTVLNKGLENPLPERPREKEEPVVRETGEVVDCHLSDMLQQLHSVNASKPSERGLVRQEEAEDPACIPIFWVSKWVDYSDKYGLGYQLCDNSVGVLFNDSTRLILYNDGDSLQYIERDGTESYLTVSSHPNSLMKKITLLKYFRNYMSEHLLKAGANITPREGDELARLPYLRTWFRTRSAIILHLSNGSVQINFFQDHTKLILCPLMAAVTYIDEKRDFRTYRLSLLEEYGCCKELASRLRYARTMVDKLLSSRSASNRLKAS
- protocolDetails: Western blot, protein degradation (DC50)
- Assay type: cell-based
- experimentalContext: 6 h; read-out: PLK1 DC50 (nM) (6 h)
propertyMeasured: DC50

As a guide, the following entries are already answered.
# compound, DC50
records = [
    ("O=C1CCC(N2Cc3c(NC(=O)CNCCOCCOCCOCCNC(=O)[C@]4(Cc5cccc(Nc6nccs6)n5)CC[C@@H](Oc5cccc(Cl)c5F)CC4)cccc3C2=O)C(=O)N1 (some centres unmarked) [UB-180730]", "< 10 nM"),
    ("CC[C@@H]1C(=O)N(C)c2cnc(Nc3ccc(C(=O)NC4CCN(CCOCCNCC(=O)Nc5cccc6c5CN(C5CCC(=O)NC5=O)C6=O)CC4)cc3OC)nc2N1Cc1ccc(Cl)s1 (some centres unmarked) [UB-180725]", "< 10 nM"),
    ("CC[C@@H]1C(=O)N(C)c2cnc(Nc3ccc(C(=O)NCc4cn(CCNCCC(=O)Nc5cccc6c5CN(C5CCC(=O)NC5=O)C6=O)nn4)cc3OC)nc2N1Cc1ccc(Cl)s1 (some centres unmarked) [UB-180714]", "10 to 100 nM"),
    ("CC[C@@H]1C(=O)N(C)c2cnc(Nc3ccc(C(=O)NC4CCN(CCOCCNCC(=O)Nc5cccc6c5CN(C5CCC(=O)NC5=O)C6=O)CC4)cc3OC)nc2N1Cc1cnc(C)s1 (some centres unmarked) [UB-180745]", "> 1000 nM"),
]

Attention now turns to another entry.
Q: Please report the recorded DC50 for CC[C@@H]1C(=O)N(C)c2cnc(Nc3ccc(C(=O)NCc4cn(CCNCCOCC(=O)Nc5cccc6c5CN(C5CCC(=O)NC5=O)C6=O)nn4)cc3OC)nc2N1C1CCCC1 (some centres unmarked) [UB-180719] .
Result: 10 to 100 nM

====

- assayedTarget: PLK1 (Homo sapiens)
- Construct: endogenous in cells
- protocolDetails: Western blot, protein degradation (DC50)
- Assay type: cell-based
- experimentalContext: 24 h, western blot; read-out: PLK1 DC50 (24 h)
For each record, write down the corresponding DC50.

# compound, assayedTarget, DC50
measured = [
    ("CC[C@@H]1CN(C)c2cnc(Nc3ccc(C(=O)NCCOCCOCCOCCNCCC(=O)Nc4cccc5c4CN(C4CCC(=O)NC4=O)C5=O)cc3OC)nc2N1Cc1ccc(Cl)s1 (some centres unmarked)", "PLK1 (Homo sapiens)", "< 10 nM"),
]

# batch: return DC50 for each of the 2 compounds below
1. CC[C@@H]1C(=O)N(C)c2cnc(Nc3ccc(C(=O)NCCOCCOCCOCCNCCCCC(=O)Nc4cccc5c4CN(C4CCC(=O)NC4=O)C5=O)cc3OC)nc2N1Cc1ccc(Br)cc1 (some centres unmarked)
2. CC[C@@H]1C(=O)N(C)c2cnc(Nc3ccc(C(=O)NC4CCN(CCNCCOCC(=O)Nc5cccc6c5CN(C5CCC(=O)NC5=O)C6=O)CC4)cc3OC)nc2N1Cc1ccc(Cl)s1 (some centres unmarked)

Result:
< 10 nM
< 10 nM

# batch: return DC50 for each of the 2 compounds below
1. CC[C@@H]1C(=O)N(C)c2cnc(Nc3ccc(C(=O)NCCCNCCCCCC(=O)Nc4cccc5c4CN(C4CCC(=O)NC4=O)C5=O)cc3OC)nc2N1C1CCCC1 (some centres unmarked)
2. CC[C@@H]1C(=O)N(C)c2cnc(Nc3ccc(C(=O)NCCOCCOCCOCCNCCCCC(=O)Nc4cccc5c4CN(C4CCC(=O)NC4=O)C5=O)cc3OC)nc2N1C1CCCC1 (some centres unmarked)

Result:
1. 100 to 1000 nM
2. 10 to 100 nM

====

- Test system: Human cervical adenocarcinoma cells Hela
- protocolDetails: Cell proliferation experiment (Alarm blue, 72 h, EC50)
- Type: cell-based
- experimentalContext: Homo sapiens
pEC50: −log10 of the molar value.
propertyMeasured: pEC50

# compound, pEC50
measured = [
    ("CC[C@@H]1C(=O)N(C)c2cnc(Nc3ccc(C(=O)NCCOCCOCCOCCNCCC(=O)Nc4cccc5c4CN(C4CCC(=O)NC4=O)C5=O)cc3OC)nc2N1Cc1ccc(Br)cc1 (stereo partly shown)", "6.00 to 7.00"),
    ("CC[C@@H]1c2nncn2-c2cnc(Nc3ccc(C(=O)NCCOCCOCCOCCOCCC(=O)Nc4cccc5c4CN(C4CCC(=O)NC4=O)C5=O)cc3OC)nc2N1C1CCCC1 (stereo partly shown)", "< 6.00"),
    ("CC[C@@H]1c2c(C#N)ncn2-c2cnc(Nc3ccc(C(=O)NCCOCCOCCC(=O)Nc4cccc5c4CN(C4CCC(=O)NC4=O)C5=O)cc3OC)nc2N1C1CCCC1 (stereo partly shown)", "< 6.00"),
    ("CC[C@@H]1CN(C)c2cnc(Nc3ccc(C(=O)NCCOCCOCCOCCNCCC(=O)Nc4cccc5c4CN(C4CCC(=O)NC4=O)C5=O)cc3OC)nc2N1Cc1ccc(Cl)s1 (stereo partly shown)", "6.00 to 7.00"),
]

# batch: return pEC50 for each of the 2 compounds below
1. CC[C@@H]1C(=O)N(C)c2cnc(Nc3ccc(C(=O)NC4CCN(CCNCCOCC(=O)Nc5cccc6c5CN(C5CCC(=O)NC5=O)C6=O)CC4)cc3OC)nc2N1Cc1ccc(Cl)s1 (stereo partly shown)
2. CC[C@@H]1c2nncn2-c2cnc(Nc3ccc(C(=O)NCCOCCOCCOCCOCC(=O)N[C@H](C(=O)N4C[C@H](O)C[C@H]4C(=O)NCc4ccc(-c5scnc5C)cc4)C(C)(C)C)cc3OC)nc2N1C1CCCC1

Result:
1: 6.00 to 7.00; 2: < 6.00

# batch: return pEC50 for each of the 2 compounds below
1. CC[C@@H]1C(=O)N(C)c2cnc(Nc3ccc(C(=O)NCCCNCCCCC(=O)Nc4cccc5c4CN(C4CCC(=O)NC4=O)C5=O)cc3OC)nc2N1C1CCCC1 (stereo partly shown)
2. CC[C@@H]1c2c(C#N)ncn2-c2cnc(Nc3ccc(C(=O)NCCOCCOCCOCCC(=O)Nc4cccc5c4CN(C4CCC(=O)NC4=O)C5=O)cc3OC)nc2N1C1CCCC1 (stereo partly shown)

Result:
6.00 to 7.00
< 6.00

# batch: return pEC50 for each of the 2 compounds below
1. CC[C@@H]1c2c(C#N)ncn2-c2cnc(Nc3ccc(C(=O)NCCOCC(=O)Nc4cccc5c4CN(C4CCC(=O)NC4=O)C5=O)cc3OC)nc2N1C1CCCC1 (stereo partly shown)
2. CC[C@@H]1c2nncn2-c2cnc(Nc3ccc(C(=O)NCCOCCOCCOCCOCCC(=O)N[C@H](C(=O)N4C[C@H](O)C[C@H]4C(=O)NCc4ccc(-c5scnc5C)cc4)C(C)(C)C)cc3OC)nc2N1C1CCCC1

Result:
< 6.00
< 6.00
